# System Tested: Glycogen synthase kinase-3 alpha (Homo sapiens) (UniProt P49840);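 further: each figure is a mean percent inhibition of GSK3A activity, from a screen of the GSK published kinase inhibitor set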
# Sequence (P49840 2-483 limits assumed): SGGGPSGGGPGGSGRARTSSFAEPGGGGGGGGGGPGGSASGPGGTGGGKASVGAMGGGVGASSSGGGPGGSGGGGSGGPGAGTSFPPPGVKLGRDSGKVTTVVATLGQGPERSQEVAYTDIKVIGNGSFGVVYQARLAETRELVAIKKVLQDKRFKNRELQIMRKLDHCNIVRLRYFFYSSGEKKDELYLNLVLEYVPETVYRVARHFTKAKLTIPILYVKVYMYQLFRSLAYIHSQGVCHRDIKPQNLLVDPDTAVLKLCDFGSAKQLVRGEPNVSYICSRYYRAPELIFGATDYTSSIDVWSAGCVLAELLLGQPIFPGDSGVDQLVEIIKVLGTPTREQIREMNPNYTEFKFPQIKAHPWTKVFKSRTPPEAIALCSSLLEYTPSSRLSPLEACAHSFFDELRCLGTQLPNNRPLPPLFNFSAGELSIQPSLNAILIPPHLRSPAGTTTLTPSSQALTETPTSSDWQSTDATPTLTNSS
# Recorded Conditions: at 1 µM
Assignment: determine reported inhibition for the given compounds.
Numbers only; they are read as %.

Recorded inhibition of C#Cc1cccc(Nc2ncnc3ccc(OCCCCNCCS(C)(=O)=O)cc23)c1 , please. 1.81

Reported inhibition for Fc1ccc(-c2ncn(C3CCNCC3)c2-c2ccnc(Oc3ccc(F)c(F)c3)n2)cc1 : what is it? 2.94

State the recorded inhibition for this entry: O=C1Nc2ccccc2/C1=C/Nc1ccc(-n2cncn2)cc1 28.2

inhibition for COc1cc2ncn(-c3cc(OCc4ccccc4C(F)(F)F)c(C(C)=O)s3)c2cc1OC ? 3.73

State the recorded inhibition for this entry: COC(=O)Nc1nc2ccc(Sc3ccc(NC(=O)Nc4cc(C(F)(F)F)ccc4F)cc3)cc2[nH]1 0.68

Fill in: inhibition of COc1cc(C)c(N(C)C(=O)CN(C)C)cc1Nc1nc(Nc2cccc(F)c2C(N)=O)c2cc[nH]c2n1 is ___ -1.13

What value of measured inhibition is listed for O=C(Nc1ccc(Oc2ccc3[nH]c(NC(=O)c4ccccc4)nc3c2)cc1)Nc1cc(C(F)(F)F)ccc1F ? 8.16

For the compound shown here, O=C(Nc1n[nH]c2nc(-c3ccco3)ccc12)C1CC1 , give the reported inhibition. 48.9

Param item = CCN(CC)Cc1ccc(Nc2nccc(-c3cnn4ncccc34)n2)cc1 ; retrieve measured inhibition. 65.8
